What clearance was measured for each of the following?
- METHOD SUMMARY: Plasma pharmacokinetics in rats after a 30-min intravenous infusion of Kang-Ai injection
- Assay type: in vivo, Sprague–Dawley rats
- CONDITION: male, Sprague-Dawley, plasma; rat; 30-min iv infusion of Kang-Ai injection 6 mL/kg; Table 1 unit; read-out: CLtot, p (converted)
Answers are plain numbers, in mL/min.

Lab note: each molecule below needs its clearance filled in.
1. CC(C)=CCC[C@](C)(O[C@@H]1O[C@H](CO[C@@H]2O[C@@H](CO)[C@H](O)[C@H]2O)[C@@H](O)[C@H](O)[C@H]1O)[C@H]1CC[C@]2(C)[C@@H]1[C@H](O)C[C@@H]1[C@@]3(C)CC[C@H](O[C@@H]4O[C@H](CO)[C@@H](O)[C@H](O)[C@H]4O[C@@H]4O[C@H](CO)[C@@H](O)[C@H](O)[C@H]4O)C(C)(C)[C@@H]3CC[C@]12C [Compound D3, Ginsenoside Rc]
2. O=C1CCC[C@@H]2[C@H]3CCCN4CCC[C@@H](CN12)[C@@H]34
3. CC(C)=CCC[C@](C)(O[C@@H]1O[C@H](CO)[C@@H](O)[C@H](O)[C@H]1O)[C@H]1CC[C@]2(C)[C@@H]1[C@H](O)C[C@@H]1[C@@]3(C)CC[C@H](O)C(C)(C)[C@@H]3[C@@H](O[C@@H]3O[C@H](CO)[C@@H](O)[C@H](O)[C@H]3O[C@@H]3O[C@@H](C)[C@H](O)[C@@H](O)[C@H]3O)C[C@]12C [Compound C9, Ginsenoside Re]
4. CC(C)=CCC[C@](C)(O[C@@H]1O[C@H](CO)[C@@H](O)[C@H](O)[C@H]1O)[C@H]1CC[C@]2(C)[C@@H]1[C@H](O)C[C@@H]1[C@@]3(C)CC[C@H](O[C@@H]4O[C@H](CO)[C@@H](O)[C@H](O)[C@H]4O[C@@H]4O[C@H](CO)[C@@H](O)[C@H](O)[C@H]4O)C(C)(C)[C@@H]3CC[C@]12C [Compound D2, Ginsenoside Rd]

Output:
1. 0.0933
2. 0.0263
3. 2.61
4. 0.0972
